# Tested on: MCF7 breast
# Protocol description: NCI-60 one-dose screen, 48 h (100 = growth as untreated, 0 = no growth, -100 = all killed)
# Settings: 10 µM
This is part of a sample that, as a whole, favours compounds with a hit. Of some 83,000 tested, about 20% had one in any assay. Activity calls are given as the source filed them. Rule for the calls: active = growth percent below 10; inactive = the rest.
Here the recorded growth is given for each entry.
Readout: growth

>>> obs_value("COc1cc(CSc2nc3ccc(C)cc3c(=O)n2Cc2ccccc2)cc(OC)c1OC")
"18% (inactive)"
>>> obs_value("COc1ccccc1Cn1cc2c(c1-c1ccccc1)CCc1cnoc1-2")
"19.3% (inactive)"
>>> obs_value("COC(=O)[C@]12CC[C@@H](C)[C@H](C)[C@@H]1C1=CC[C@@H]3[C@@]4(C)C/C(=N\\O)[C@H](O)[C@@]5(C)COC(=C45)C[C@@]3(C)[C@]1(C)CC2")
"-71.1% (active)"
>>> obs_value("Cc1ccc(S(=O)(=O)Nc2cccc3[nH]c(C(F)(F)F)nc23)cc1")
"13.2% (inactive)"
>>> obs_value("O=C/C=C/c1ccc([N+](=O)[O-])cc1Cl")
"62.8% (inactive)"
>>> obs_value("Cc1cc(O)c(C2=NN(c3ccc(S(N)(=O)=O)cc3)C(c3ccc(N(C)C)cc3)C2)c(C)c1Cl (stereo not given)")
"37.2% (inactive)"
>>> obs_value("COc1ccc(-c2nnc(COc3ccc(NC(=O)Nc4cccc(C(F)(F)F)c4)cc3F)o2)cc1")
"88.7% (inactive)"
>>> obs_value("COc1cc(C2c3cc4c(cc3C(O)C(CO)C2CO)OCO4)cc(OC)c1OC (stereo not given)")
"17.5% (inactive)"
>>> obs_value("O=[N+]([O-])c1ccc2c(c1)Cc1cc(I)ccc1-2")
"85% (inactive)"
>>> obs_value("O=C(COc1ccc(Cl)cc1Cl)Oc1coc(CSc2nc3ccccc3s2)cc1=O")
"102% (inactive)"
